// reported melting point per item

Worked cases, melting point given:
NS(=O)(=O)c1cc(Br)ccc1Cl ... 179 to 181 °C
NNC(=O)CCN1CCCC1 ... 137 to 139 °C

For the compound O=C(O)c1ccc(OCC(F)F)nc1 , report melting point. 158 to 160 °C

For the compound Cc1ccc(-c2ccc(C(=O)O)s2)o1 , report melting point. 197 to 199 °C

For the compound Cc1c(N)cccc1CS(C)=O (configuration not stated) , report melting point. 183 to 185 °C

For the compound O=C(Cc1ccc(Cl)cc1)c1ccccc1 , report melting point. 131 to 135 °C

For the compound OC(c1ccccc1)c1nccs1 (configuration not stated) , report melting point. 99 to 101 °C
